From: PubChem BioAssay AID1159580

# protocol-details: chemical genetic growth profiling, strain panel (AID 1159580);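 further: tested at 20 µM; growth read once vehicle control cultures reached saturation at 30 °C; 1 = growth at the plate median or of vehicle wells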
# experimental-setup: S. cerevisiae deletion strains, growth OD, locus YPL106C, strain sse1, stronger effect = lower value
About 2,000 (36%) of roughly 5,500 compounds were called active. Another 18% or so got no clear call; they are omitted. The list shows a part of the results.
Reported normalized growth values for a set of compounds

compound	normalized growth
CN1CCC[C@@H]1CCO[C@](C)(c1ccccc1)c1ccc(Cl)cc1	1.02
NC(=O)NC1NC(=O)NC1=O (configuration not stated)	0.977
CC(=O)O[C@@H]1CC2C(C)(C)C(=O)C3OC3[C@]2(C)C2CC[C@@]3(C)[C@H](c4ccoc4)OC(=O)C4OC43[C@@]21C (some centres not stated)	0.989
Clc1ccc(C(Cn2ccnc2)OCc2ccsc2Cl)c(Cl)c1 (configuration not stated)	0.0945
CC(=O)O[C@H]1CC[C@@]2(C)C(C[C@@H](OC(C)=O)[C@]3(C)C2CC[C@@]2(C)[C@H](c4ccoc4)OC(=O)[C@H]4O[C@]423)C1(C)C (some centres not stated)	0.981
CC1[C@H](C)OC(=O)CC(O)CC(O)CC(O)CCC(O)C(O)C[C@]2(O)CC(O)C(C(=O)O)C(CC(OC3O[C@H](C)[C@@H](O)[C@H](N)[C@@H]3O)/C=C/C=C/C=C/C=C/CC/C=C/C=C/[C@H](C)[C@H]1O)O2 (some centres not stated)	0.229
CC(=O)O[C@@H]1CC2C(C)(C)[C@@H](O)CC[C@]2(C)C2CC[C@@]3(C)[C@H](c4ccoc4)OC(=O)[C@H]4O[C@]43[C@@]21C (some centres not stated)	1.01

---

# protocol-details: chemical genetic growth profiling, strain panel (AID 1159580)
# experimental-setup: S. cerevisiae deletion strains, growth OD, locus YHR027C, strain rpn1, stronger effect = lower value
Out of some 5,500 compounds screened, about 2,000 (36%) were called active. Not shown: some 18% with an inconclusive outcome. The list shows a part of the results.

molecule	normalized growth
NC(N)=NCCCCN=C(N)N	1
COc1cc(NS(C)(=O)=O)ccc1Cc1c2ccccc2nc2ccccc12	0.978
C[C@]12C=CC(=O)C=C1CCC1C2[C@@H](O)C[C@@]2(C)C1CC[C@]2(O)C(=O)CO (stereo partly drawn)	0.995
CC(C)/C(O)=C1/C(=O)O[C@@H](c2ccoc2)[C@]2(C)C(O)[C@@H](O)[C@@]34OC5(C)OC67CC(C)(C(O)[C@]6(O)[C@@H](O)[C@]3(O5)C12)[C@H](CC(=O)O)[C@]74C (stereo partly drawn)	0.994
NCC[C@@H](O)C(=O)N[C@@H]1C[C@H](N)[C@@H](O[C@H]2O[C@H](CN)[C@@H](O)[C@H](O)[C@H]2O)[C@H](O)[C@H]1O[C@H]1O[C@H](CO)[C@@H](O)[C@H](N)C1O (stereo partly drawn)	1.03
COc1ccc(-c2oc3cc(OC)c(OC)c(OC)c3c(=O)c2OC)cc1OC	1
NC(N)=NCCN1CCCCCCC1	1.03
Cc1cc(/C=C/c2ccc3cc(N(C)C)ccc3[n+]2C)c(C)n1-c1ccccc1	0.83
CCCn1c(=O)c2[nH]c(C3CCCC3)nc2n(CCC)c1=O	0.988
CC(=O)C1CC[C@H]2C3CC[C@H]4C[C@H](O)CC[C@]4(C)C3CC[C@]12C (stereo partly drawn)	0.999
COc1ccc2c(c1)OCC(Cc1ccc(OC)c(OC(C)=O)c1)C2=O (stereo not drawn)	0.995
COc1ccc2c(c1)OCC(Cc1ccc(OC)c(O)c1)C2=O (stereo not drawn)	0.944
CC[C@@H]1OC(=O)C[C@@H](O)[C@H](C)[C@@H](O[C@@H]2O[C@H](C)[C@@H](O)[C@H](N(C)C)[C@H]2O)[C@@H](CCN2C[C@H](C)C[C@H](C)C2)C[C@@H](C)C(=O)/C=C/C(C)=C\[C@@H]1CO[C@@H]1O[C@H](C)[C@@H](O)[C@@H](OC)[C@H]1OC	1
COc1ccc2c(c1)OCC(Cc1ccc(OC)c(OC)c1)C2=O (stereo not drawn)	0.967
Cc1onc(-c2ccccc2)c1-c1ccc(S(N)(=O)=O)cc1	1
Clc1ccc(C(Cn2ccnc2)OCc2ccsc2Cl)c(Cl)c1 (stereo not drawn)	0.0631
CC(=O)Oc1c2c(c3c(c1CC=C(C)C)O[C@]14C(=C[C@@H]5CC1C(C)(C)OC4(C/C=C(\C)C(=O)O)C5=O)C3=O)OC(C)(CCC=C(C)C)C=C2 (stereo partly drawn)	0.98
Cc1oncc1C(=O)Nc1ccc(C(F)(F)F)cc1	0.992

---

# protocol-details: chemical genetic growth profiling, strain panel (AID 1159580);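 further: tested at 20 µM; growth read once vehicle control cultures reached saturation at 30 °C; 1 = growth at the plate median or of vehicle wells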
# experimental-setup: S. cerevisiae deletion strains, growth OD, locus YGR078C, strain PAC10, stronger effect = lower value
The whole screen tested about 5,500 compounds, of which about 2,000 (36%) were called active. About 18% were inconclusive and are not listed. The list shows a part of the results. Where a SMILES comes first, the peptide text is derived from it.
Reported normalized growth values for a set of compounds

compound	normalized growth
CC(=O)N[C@@H](CCC(=O)O)C(=O)O	0.999
CC(=O)N[C@@H](CC(=O)O)C(=O)N[C@@H](CCC(=O)O)C(=O)O (Ac-Asp-Glu-OH)	1.01
CCOC(=O)CNc1ccc(Cl)c(Cl)c1	0.958
Cc1onc(-c2ccccc2Cl)c1C(=O)N1CCCN2C(=O)c3ccccc3C21 (stereo unspecified)	0.994
O=c1[nH]c(=O)n(C2C[C@H](O)[C@@H](CO)O2)cc1C(F)(F)F (stereo partly specified)	0.997
O=S(=O)(NCCc1ccncc1)c1cc(C(F)(F)F)cc(C(F)(F)F)c1	0.987
CCOC(=O)C(=CNNS(=O)(=O)c1cc(C(F)(F)F)cc(C(F)(F)F)c1)C(=O)OCC	0.967
c1ccc(CN2CCC3(CCCc4ccccc43)CC2)cc1	0.976
CC(=O)NC(CCC(=O)O)C(=O)O (stereo unspecified)	0.983
O=C1NC2(CCN(Cc3ccccc3)CC2)Oc2ccccc21	0.98
O=C(O)CCC1NCC2CC1CN1CCCCC21 (stereo unspecified)	1

---

# protocol-details: chemical genetic growth profiling, strain panel (AID 1159580);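 further: tested at 20 µM; growth read once vehicle control cultures reached saturation at 30 °C; 1 = growth at the plate median or of vehicle wells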
# experimental-setup: S. cerevisiae deletion strains, growth OD, locus YNL153C, strain GIM3
Among all 5,500 compounds or so, about 2,000 (36%) were called active. Not shown: some 18% with an inconclusive outcome. No stated cut-off is given here; in the data, active means normalized growth mostly below about 0.91 (no sharp cut-off); inconclusive means no clear call, values can overlap the other calls; inactive means mostly above about 0.92. The list shows a part of the results.
Possible outcomes: active, inactive

compound	assigned-category
FC(F)(F)c1cccc(N2CCNCC2)c1	inactive
CNc1ccc(C(=O)CC(O)CCC(C)C2OC(=O)CC(O)CC(=O)CC(O)CC(O)CC(O)CC(O)CC3(O)CC(O)C(C(=O)OC)C(CC(OC4OC(C)C(O)C(N)C4O)/C=C/C=C/C=C/C=C/C=C/C=C/C=C/C2C)O3)cc1 (stereo unspecified)	active
CC1OC(O[C@H]2/C=C/C=C/C=C/C=C/C=C/C=C/C=C/[C@H](C)[C@@H](O)[C@@H](C)[C@H](C)OC(=O)CC(O)CC(O)CCC(O)C(O)CC(O)C[C@]3(O)C[C@H](O)C(C(=O)O)C(C2)O3)C(O)[C@H](N)C1O (stereo partly specified)	inactive
C=NC(C(=O)NC1C(=O)N2C1SC(C)(C)C2C(=O)O)c1ccccc1 (stereo unspecified)	inactive
CC1[C@H](C)OC(=O)CC(O)CC(O)CC(O)CCC(O)C(O)C[C@]2(O)CC(O)C(C(=O)O)C(CC(OC3O[C@H](C)[C@@H](O)[C@H](N)[C@@H]3O)/C=C/C=C/C=C/C=C/CC/C=C/C=C/[C@H](C)[C@H]1O)O2 (stereo partly specified)	active
Cc1nn(Cc2ccccc2Cl)c(=N)s1	inactive

---

Reported normalized growth values for a set of molecules
# protocol-details: chemical genetic growth profiling, strain panel (AID 1159580);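 further: tested at 20 µM; growth read once vehicle control cultures reached saturation at 30 °C; 1 = growth at the plate median or of vehicle wells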
# experimental-setup: S. cerevisiae deletion strains, growth OD, locus YDR334W, strain swr1, stronger effect = lower value
The campaign covered roughly 5,500 compounds. About 2,000 (36%) were called active. Not shown: some 18% with an inconclusive outcome. The list shows a part of the results.

molecule	normalized growth
O=c1oc2ccccc2cc1O	0.96
COc1ccc(-c2oc3cc(OC)c(OC)c(OC)c3c(=O)c2OC)cc1OC	0.97
COc1ccc2c(c1)OCC(Cc1ccc(OC)c(OC(C)=O)c1)C2=O (configuration not stated)	0.973
COc1ccc(-c2oc3cc(OC)c(OC)c(OC)c3c(=O)c2OC)cc1	0.98
COc1ccc2c(c1)OCC(Cc1ccc(O)c(OC)c1)C2=O (configuration not stated)	0.949
COc1cc2c(cc1OC)C1(O)C(=O)c3ccc(O)c(C(=O)O)c3OC1CO2 (configuration not stated)	0.978
COc1ccc2c(c1)OCC(Cc1ccc(OC)c(O)c1)C2=O (configuration not stated)	0.977
COc1ccc2oc3ccccc3c(=O)c2c1	0.852
NC(=O)NC1NC(=O)NC1=O (configuration not stated)	1
NCC[C@@H](O)C(=O)N[C@@H]1C[C@H](N)[C@@H](O[C@H]2O[C@H](CN)[C@@H](O)[C@H](O)[C@H]2O)[C@H](O)[C@H]1O[C@H]1O[C@H](CO)[C@@H](O)[C@H](N)C1O (some centres not stated)	1.01
c1ccc2c(CC3=NCCN3)cccc2c1	0.958
CN(C)C(=O)Oc1ccc[n+](C)c1	1
